Target: PfHsp70‐x C‐terminal truncated version with a missing EEVN motif (Plasmodium falciparum)
Assay: SPR; PfHsp70‐x or PfHsp70‐xT immobilised on ProteOn GLC chips, peptides as analytes at 1.25-20 nM, 25°C, PBS‐Tween pH 7.4, with 2 mM ATP
Assay Metric: Kd (nM)
Respond with the bare value in nM.

NRLLTG [peptide NRLLTG]	1800

Attention now turns to another entry.
Can you share its Kd? I mean this binder: NRNNTG [peptide NRNNTG]
107
